- targetOrTestSystem: rat brain farnesyl:protein transferase (rat, UniProt Q04631 2-377; Q02293 1-437)
- testName: farnesyltransferase activity inhibition; FIG. 11
measuredParameter: Ki (nM)
Answer format: numeric, nM implied, no suffix.

Query block: // fetch Ki given entry CFIM
Result block: 500
